# measured.target: UniProt P30405
# Sequence (P30405 30-207): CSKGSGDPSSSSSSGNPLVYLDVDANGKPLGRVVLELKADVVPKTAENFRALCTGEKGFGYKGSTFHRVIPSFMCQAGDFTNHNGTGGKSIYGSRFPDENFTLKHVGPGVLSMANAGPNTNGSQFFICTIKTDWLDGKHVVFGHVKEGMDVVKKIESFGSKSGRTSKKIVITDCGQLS
# test.name: Inhibitor binding to cyclophilin proteins by SPR, CypF
# measurement.setup: 1:1 binding model
Starred links: 1 amine or outer side, 2 acyl side, 3 side chain; linkers in the order of their positions; H or OH if unused. Non-standard residues stand in square brackets, D forms with d. Residues, ends and D or L forms follow the SMILES beside them. X22 = C[C@H](CN1CCN(C2CCC2)CC1)[C@@H](C(=O)[*:2])N(C)[*:1]; NMe(dihydroBmt) = CCCC[C@@H](C)[C@@H](O)[C@H](NC)C(=O)O; NMeL = CN[C@@H](CC(C)C)C(=O)O; NMeV = CN[C@H](C(=O)O)C(C)C; dNMeA = CN[C@H](C)C(=O)O; Abu = CC[C@H](N)C(=O)O
assay.readout: CypF Kd (nM)
The reply should be a number in nM, with the unit left off.

Entry CCCC[C@@H](C)[C@@H](O)[C@H]1C(=O)N[C@@H](CC)C(=O)N(C)[C@H](C)C(=O)N(C)[C@@H]([C@H](C)CN2CCN(C3CCC3)CC2)C(=O)N[C@@H](C(C)C)C(=O)N(C)[C@@H](CC(C)C)C(=O)N[C@@H](C)C(=O)N[C@H](C)C(=O)N(C)[C@@H](CC(C)C)C(=O)N(C)[C@@H](CC(C)C)C(=O)N(C)[C@@H](C(C)C)C(=O)N1C [Compound 2.5.15] (cyclo([NMe(dihydroBmt)][Abu][dNMeA][X22]V[NMeL]A[dA][NMeL][NMeL][NMeV])) , CypF Kd reported as 0.6

---

# Test system: peripheral blood mononuclear cells (PBMC)
# test.name: Anti-proliferative or immunosuppressive activity, BrdU incorporation in PHA-stimulated PBMC
# Assay type: cell-based
# measurement.setup: PHA 3 μg/ml, 60 hour compound treatment; read-out: EMV PBMC IC50
Starred links: 1 amine or outer side, 2 acyl side, 3 side chain; linkers in the order of their positions; H or OH if unused. Non-standard residues stand in square brackets, D forms with d. Residues, ends and D or L forms follow the SMILES beside them. X9 = C[C@@H](CN1CCOCC1)[C@@H](C(=O)[*:2])N(C)[*:1]; MeBmt = C/C=C/C[C@@H](C)[C@@H](O)[C@H](NC)C(=O)O; NMeL = CN[C@@H](CC(C)C)C(=O)O; NMeV = CN[C@H](C(=O)O)C(C)C; dNMeA = CN[C@H](C)C(=O)O; Abu = CC[C@H](N)C(=O)O
assay.readout: pIC50
Interpret pIC50 as the negative base-10 log of the concentration measured in mol/L.

Value (pIC50, peripheral blood mononuclear cells (PBMC)) for record C/C=C/C[C@@H](C)[C@@H](O)[C@H]1C(=O)N[C@@H](CC)C(=O)N(C)[C@H](C)C(=O)N(C)[C@@H]([C@@H](C)CN2CCOCC2)C(=O)N[C@@H](C(C)C)C(=O)N(C)[C@@H](CC(C)C)C(=O)N[C@@H](C)C(=O)N[C@H](C)C(=O)N(C)[C@@H](CC(C)C)C(=O)N(C)[C@@H](CC(C)C)C(=O)N(C)[C@@H](C(C)C)C(=O)N1C [Compound 2.17.1] (cyclo(A[dA][NMeL][NMeL][NMeV][MeBmt][Abu][dNMeA][X9]V[NMeL])) = 4.74
